experiment: CEETOX_H295R_OHPROG: CeeTox H295R High-throughput Steroidogenesis Assay for OH-Progesterone (OHPROG) (AID 2283435); settings: actives raise or lower the signal
Calls of active or inactive are those of the source. The calls were made as follows: active = hit-call score of the fitted dose curve at least 0.9, where 1 is the maximum; inactive = score below 0.9.
I would appreciate it if you answered using one of these outcomes: Y = active, N = inactive

Known results for compounds:
>>> label_class("N#Cc1c(-c2ccc(Cl)cc2)[nH]c(C(F)(F)F)c1Br")
"Y"
>>> label_class("O=S1(=O)OCC2C(CO1)C1(Cl)C(Cl)=C(Cl)C2(Cl)C1(Cl)Cl (centres undefined)")
"Y"
>>> label_class("CCNc1nc(Cl)nc(NC(C)(C)C)n1")
"N"

Ask: // outcome(item) with item = CCC(C)(C)c1ccc(O)cc1
Reply: Y

Ask: Lab log entry: CC(C)Nc1ccc(Nc2ccccc2)cc1 — outcome as called in the assay?
Reply: N

Ask: Lab log entry: CCOP(=S)(Oc1ccc([N+](=O)[O-])cc1)c1ccccc1 (centres undefined) — outcome as called in the assay?
Reply: Y

----------
read-out: Interleukin-1 alpha (IL1a), IL1A (gene 3552); assay: BSK_LPS_IL1a: BioMAP Diversity Plus: LPS Assay for Interleukin-1 alpha (IL1a) Biomarker Activity (AID 2283080); settings: primary human HUVEC with PBMC; actives raise or lower the signal
The source made the active and inactive calls. The calls were made as follows: active = hit-call score of the fitted dose curve at least 0.9, where 1 is the maximum; inactive = score below 0.9.
Select the correct class. Options are active, inactive and nothing else.

Before answering, review these 5 worked examples.
>>> label_class("O=[N+]([O-])c1ccccc1")
"inactive"
>>> label_class("CCNc1nc(Cl)nc(NC(C)(C)C)n1")
"inactive"
>>> label_class("c1cc2c3c(cccc3c1)CC2")
"inactive"
>>> label_class("CC(C)(C)c1ccccc1OP(=O)(Oc1ccccc1)Oc1ccccc1")
"active"
>>> label_class("COP(N)(=S)OC")
"inactive"

Ask: # lookup: test call for Cc1cccc(N)c1
Reply: inactive

Ask: Hi, sorry to bother you, what did the test record for O=C(O)C(F)(OC(F)(F)C(F)(F)C(F)(F)F)C(F)(F)F (configuration not stated) ?
Reply: inactive

----------
read-out: Interferon-gamma inducible Protein 10 (IP10), CXCL10 (gene 3627); test: BSK_KF3CT_IP10: BioMAP Diversity Plus: KF3CT Assay for Interferon-gamma inducible Protein 10 (IP10) Biomarker Activity (AID 2283068); conditions: primary human keratinocytes with fibroblasts; actives raise or lower the signal
Active and inactive are the calls of the source. Rule for the calls: active = hit-call score of the fitted dose curve at least 0.9, where 1 is the maximum; inactive = score below 0.9.
Output constraint: value belongs to class 1 (active), class 0 (inactive)

Solved entries (count: 8):
>>> label_class("COP(=O)(O)OC")
"class 0"
>>> label_class("CC(C)(C)OOC(C)(C)C")
"class 0"
>>> label_class("ClC1=C(Cl)C2(Cl)C3C(Cl)C(Cl)CC3C1(Cl)C2(Cl)Cl (stereo not given)")
"class 1"
>>> label_class("O=P1(N(CCCl)CCCl)NCCCO1 (stereo not given)")
"class 0"
>>> label_class("O=P(OCC(Br)CBr)(OCC(Br)CBr)OCC(Br)CBr (stereo not given)")
"class 1"
>>> label_class("CCOP(=S)(OCC)SCS(=O)(=O)CC")
"class 0"
>>> label_class("O=[N+]([O-])c1ccccc1")
"class 0"
>>> label_class("c1cc2c3c(cccc3c1)CC2")
"class 0"

Ask: Hi, sorry to bother you, what did the test record for O=P(Oc1ccccc1)(Oc1ccccc1)Oc1ccccc1 ?
Reply: class 0

Ask: Hi team, can someone confirm the assay call for O=[N+]([O-])c1ccc(Cl)c(Cl)c1 ?
Reply: class 0

Ask: Recorded test call requested for ClC(Cl)(Cl)c1ccccc1
Reply: class 0

Values compiled from PubChem BioAssay (EPA / NIEHS).
